Taken from the supplement of paper PMC9170038.

Test system: MS2 coat protein
experiment.description: apparent KD of MS2 coat protein; designed switch direction (-1 OFF switch, 1 ON switch): -1; higher = weaker reporter binding
test.parameters: Eterna round: R95; input ligand: microRNA oligo, concentration not stated
value.kind: apparent KD of MS2 coat protein (nM)
Response body: numeric value in nM, unit text excluded.

Consider the following illustrative entries.
{"seq": "GAUUGACAUGAGGAUCACCCAUGUGAGGAUAUCGGCCGGACCUUGUUAGCUUCCAUCGUGAGAAGGCACAUAGG [Exclusion 1 V35] (puzzle: Exclusion 1)", "unit.of.measure": "nM", "meas.value": 26.9}
{"seq": "UUAAUAAGUGUGAGGAUAUGCUGGUCCUUGGAUCAGCAGAAGGCACAUGAGGAUCACCCAUGUACAAUAUAUUA [Mat - Exclusion 4 - JL Mod - D31] (puzzle: Brourd's mod of Exclusion 4)", "unit.of.measure": "nM", "meas.value": 33.9}

Find the measured apparent KD of MS2 coat protein of AUCAUGUCAGGAUAUAUGACAUGGCUCUUCGGAGCAAGCUCAUAGAAGGGACAUGAGGAUCACCCAUGUAGAGC [Ex4-3: 22] (puzzle: Exclusion 4) and report it.
22.1

Please give measured apparent KD of MS2 coat protein of the following entry: GGUACUAUCACCUGAGUGGUAGUGCCACAAGCUUGUGAUACAUGAGGAUCACCCAUGUCCUCAUUUGCUCGUCUUAU [JL-sv3-2.28 JL mod] (puzzle: Sensor v3, turn-off variant 2)
1080

// fetch apparent KD of MS2 coat protein given entry UAAUUAAGUGUGAGGAUAUGCUGGUCCUUGGAUCAGCAGAAGGCACAUGAGGAUCACCCAUGUAAAUUAUUUAU [Mat - Exclusion 4 - JL Mod - D60] (puzzle: Brourd's mod of Exclusion 4)
73.2

Supply reported apparent KD of MS2 coat protein belonging to this sequence: ACAAGCUUUUUGUUCGUCUUAUAAUAUUCUAAGAGGAUAACAUGAGGAUCACCCAUGUAACAAAGACGGACUCAUGU [Sesor Array 14 - Jieux - Sensor v3, turn-off variant 2] (puzzle: Sensor v3, turn-off variant 2)
139

For CCUAUGUGAGGAUAUCACUGGUCUUUUCAUUAGAUGAUCAGUGAGAAGGCACAUGAGGAUCACCCAUGUCAGUG [Ex4 - 3 - 53] (puzzle: Exclusion 4) , write its apparent KD of MS2 coat protein.
71.8

For CAUACUCAAGUCAGGAUAUACAGUCGAAUACGGGUGUAGAAGGGACAUGAGGAUCACCCAUGUAGAGAGUAAAG [EX-4 Malc #22] (puzzle: Brourd's mod of Exclusion 4) , write its apparent KD of MS2 coat protein.
33

Answer with reported apparent KD of MS2 coat protein of CCCAAGUCAGGAUAUGGAACACAGAGACAUCUCUGUGCCCACCAGAAGGGACAUGAGGAUCACCCAUGUGAUGA [Soesat] (puzzle: Exclusion 4)
56.6

Output measured apparent KD of MS2 coat protein for this item: AGUCGGCGAGGAUAUACAUGAGGAUCACCCAUGUGAUAGAGUGCACGCGUACGUGUACGUAGAAGGCGCUGACA [Mat - Exclusion 3 - Mod of JL D95] (puzzle: Exclusion 3)
12.6

---

Test system: MS2 coat protein
experiment.description: apparent KD of MS2 coat protein; designed switch direction (-1 OFF switch, 1 ON switch): -1; higher = weaker reporter binding
test.parameters: input ligand: FMN 200 uM
Binary call on apparent KD of MS2 coat protein: Condition met from 100 nM upward, Condition not met beneath that.

Look over these answered cases.
{"seq": "UAAUUGAUUAAUAAAUUAUACAUGAGGAUCACCCAUGUAGAUCCUACGUGCCAUUUAAGUAGCUCGUCUUAUUAUUA [Sensor-V1 #64] (Eterna round: R97, puzzle: Sensor, turn-off variant 1)", "qualitative.label": "Condition met"}
{"seq": "GUUGUUUAUGUAGGAUAUGCCUGGCGUGCCUUUGCAGAAGGACAUGAGGAUCACCCAUGUAACAUGAGGCUCACCCAUGUCGCU [salish99_ExNG1_r04_108] (Eterna round: R96, puzzle: Exclusion NG 1)", "qualitative.label": "Condition met"}
{"seq": "GCUAGCCAUGUCAGGAUAUGCUGUACCUUGGUACAGCAGAAGGGACAUGAGGAUCACCCAUGUGCCUAGCUAGC [JL-BMX4-4.03] (Eterna round: R97, puzzle: Brourd's mod of Exclusion 4)", "qualitative.label": "Condition met"}
{"seq": "GCGGGAUAGCAAGGAUAUCCCGAGUCGCAAGGAAACAUCCACAUGAGGAUCACCCAUGUGGCUCUGGAGAAGGUGCGACGCAAA [Onveceanti] (Eterna round: R96, puzzle: Exclusion NG 2)", "qualitative.label": "Condition not met"}

Now look at this entry.
Reported apparent KD of MS2 coat protein reaches at least 100 nM for GUCAGCUCGUGAGGAUAUACAUGCGUGCUUCGGCACGAAUUUAAGAUCACAUGAGGAUCACCCAUGUAGAAGGCACGAGCUGAC [ENG2/3-A1] (Eterna round: R96, puzzle: Exclusion NG 2) ?
Condition met
